experiment: Cytotoxicity against human WS1 cells after 48 hrs by resazurin reduction assay
Assay type: functional, cell-based
study.conditions: WS1, 48 h
recorded.endpoint: pIC50
// pIC50 here means minus log10 of the molar concentration (mol/L)

COc1cc(O)cc2c1c(=O)c1ccccc1n2C: 4.38

Turning to the following molecule.
For record COc1cc2c(c(O)c1OC)c(=O)c1ccccc1n2C the listed pIC50 is 4.25

----------
experiment: Cytotoxicity against human WS1 cells after 48 hrs by resazurin reduction assay
Type: functional, cell-based
study.conditions: WS1, 48 h
Some molecules, each annotated with its measured pIC50.
Reminder that pIC50 is minus the log10 of a molar concentration.

COc1c(O)cc2c(c1OC)c(=O)c1ccccc1n2C: 4.13

pIC50 reading for COc1cc(O)c2c(=O)c3ccccc3n(C)c2c1 : 4.29

// sample COc1cc([C@@H]2c3cc4c(cc3[C@@H](O[C@@H]3O[C@@H]5CO[C@@H](C)O[C@H]5[C@H](O)[C@H]3O)[C@H]3COC(=O)[C@H]23)OCO4)cc(OC)c1O [ETOPOSIDE] , its pIC50 was 5.37

----------
experiment: Cytotoxicity against human WS1 cells after 48 hrs by resazurin reduction assay
Assay type: functional, cell-based
study.conditions: WS1, 48 h
IC50 values for the compounds below.

# example entries with known answers
COc1cc2ccc(=O)oc2cc1OC: > 100 µM
COc1cc(O)c(OC)c2c1c(=O)c1ccccc1n2C: > 100 µM

Shifting focus to the compound that follows.
Sure, the documented IC50 for CCCCCCCCCCCCCCCCCCCCCCCC(=O)NCCc1ccc(O)cc1 is > 100 µM

src = ChEMBL document CHEMBL1157772
